# Study target: T1, human GPC3-his tag protein (human, UniProt P51654 25-559, limits assumed)
# T1 construct: recombinant soluble antigen used as analyte in all Biacore runs; also called recombinant GPC3 protein; rhGPC3-His; not shown: His tag
# Assay text: SPR Biacore 8K, mAb captured, affinity ranking
Quantity: koff (s⁻¹)
Please give a number only; it is taken to be in s⁻¹.

Here's what some known entries look like.
Binder: Hu 52H5D3B8-1 (antibody, V domains shown, humanized 52H5D3B8; also called 52H5D3B8 VH0 + VL0) VH: EVQLVQSGAEVKKPGASVKVSCKASGYTFTDYEMHWVRQAPGQGLEWMGAIHPGSGGTAYNQKFKGRVTMTRDTSISTAYMELSRLRSDDTAVYYCARFYSYAYWGQGTLVTVSS VL: DVVMTQTPLSLSVTPGQPASISCRSSQSLVHSNGNTYLQWYLQKPGQSPQLLIYKVSNRFSGVPDRFSGSGSGTDFTLKISRVEAEDVGVYYCSQSIHVPYTFGGGTKVEIK
Display unit: s⁻¹
koff: 0.00161
//
Binder: Hu 52H5D3B8-10 (antibody, V domains shown, humanized 52H5D3B8; also called 52H5D3B8 VH4 + VL1) VH: EVQLVQSGAEVKKPGASVKVSCKASGYTFTDYEMHWVRQAPGQGLEWIGAIHPGSGGTAYNQKFKGRVTLTADKSISTAYMELSRLRSDDTAVYYCTRFYSYAYWGQGTLVTVSS VL: DVVMTQTPLSLSVTPGQPASISCRSSQSLVHSNGNTYLQWYLQKPGQSPQLLIYKVSNRFSGVPDRFSGSGSGTDFTLKISRVEAEDVGVYFCSQSIHVPYTFGGGTKVEIK
Display unit: s⁻¹
koff: 0.00104
//
Binder: Hu 52H5D3B8-4 (antibody, V domains shown, humanized 52H5D3B8; also called 52H5D3B8 VH1 + VL1) VH: EVQLVQSGAEVKKPGASVKVSCKASGYTFTDYEMHWVRQAPGQGLEWMGAIHPGSGGTAYNQKFKGRVTMTRDTSISTAYMELSRLRSDDTAVYYCTRFYSYAYWGQGTLVTVSS VL: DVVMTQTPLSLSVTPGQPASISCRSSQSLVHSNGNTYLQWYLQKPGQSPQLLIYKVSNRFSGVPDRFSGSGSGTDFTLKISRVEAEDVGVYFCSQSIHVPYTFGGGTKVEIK
Display unit: s⁻¹
koff: 0.00164
//
Binder: Hu 52H5D3B8-5 (antibody, V domains shown, humanized 52H5D3B8; also called 52H5D3B8 VH2 + VL0) VH: EVQLVQSGAEVKKPGASVKVSCKASGYTFTDYEMHWVRQAPGQGLEWMGAIHPGSGGTAYNQKFKGRVTMTADTSISTAYMELSRLRSDDTAVYYCTRFYSYAYWGQGTLVTVSS VL: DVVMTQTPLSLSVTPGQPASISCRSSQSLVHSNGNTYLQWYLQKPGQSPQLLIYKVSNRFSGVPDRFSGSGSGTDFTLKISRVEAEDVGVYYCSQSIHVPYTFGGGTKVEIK
Display unit: s⁻¹
koff: 0.000916
//
Binder: Hu 52H5D3B8-9 (antibody, V domains shown, humanized 52H5D3B8; also called 52H5D3B8 VH4 + VL0) VH: EVQLVQSGAEVKKPGASVKVSCKASGYTFTDYEMHWVRQAPGQGLEWIGAIHPGSGGTAYNQKFKGRVTLTADKSISTAYMELSRLRSDDTAVYYCTRFYSYAYWGQGTLVTVSS VL: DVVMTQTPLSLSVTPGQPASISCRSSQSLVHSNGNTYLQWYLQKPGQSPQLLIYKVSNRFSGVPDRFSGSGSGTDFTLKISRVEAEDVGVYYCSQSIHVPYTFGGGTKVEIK
Display unit: s⁻¹
koff: 0.00102

Problem: In one line, give reported koff of the entry Hu 52H5D3B8-12 (antibody, V domains shown, humanized 52H5D3B8; also called 52H5D3B8 VH5 + VL1) VH: EVQLVQSGAEVKKPGASVKVSCKASGYTFTDYEMHWVRQAPGQGLEWIGAIHPGSGGTAYNQKFKGKATLTADKSISTAYMELSRLRSDDTAVYYCTRFYSYAYWGQGTLVTVSS VL: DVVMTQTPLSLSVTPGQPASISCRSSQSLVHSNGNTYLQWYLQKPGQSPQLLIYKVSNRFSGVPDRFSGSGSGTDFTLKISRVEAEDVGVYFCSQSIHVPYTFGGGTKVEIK .
Result: 0.001

Problem: In one line, give reported koff of the entry Hu 52H5D3B8-8 (antibody, V domains shown, humanized 52H5D3B8; also called 52H5D3B8 VH3 + VL1) VH: EVQLVQSGAEVKKPGASVKVSCKASGYTFTDYEMHWVRQAPGQGLEWMGAIHPGSGGTAYNQKFKGRVTMTADKSISTAYMELSRLRSDDTAVYYCTRFYSYAYWGQGTLVTVSS VL: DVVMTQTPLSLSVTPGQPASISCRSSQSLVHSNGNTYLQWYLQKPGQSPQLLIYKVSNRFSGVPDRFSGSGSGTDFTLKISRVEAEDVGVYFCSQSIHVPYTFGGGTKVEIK .
Result: 0.0011

Problem: In one line, give reported koff of the entry Hu 52H5D3B8-7 (antibody, V domains shown, humanized 52H5D3B8; also called 52H5D3B8 VH3 + VL0) VH: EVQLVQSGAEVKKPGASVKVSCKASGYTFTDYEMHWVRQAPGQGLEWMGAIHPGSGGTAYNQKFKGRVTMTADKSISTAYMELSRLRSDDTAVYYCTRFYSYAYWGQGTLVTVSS VL: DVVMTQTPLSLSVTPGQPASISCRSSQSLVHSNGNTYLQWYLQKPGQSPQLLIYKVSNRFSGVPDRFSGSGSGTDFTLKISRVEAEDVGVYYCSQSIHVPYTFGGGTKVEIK .
Result: 0.00103

Problem: In one line, give reported koff of the entry 52H5D3B8 chimeric mAb (antibody, V domains shown, also called 52H5D3B8-VH+VL; chimeric 52H5D3B8 mAb) VH: QVQLQQSGAELVRPGASVKLSCKALGYTFTDYEMHWVKQTPVHGLEWIGAIHPGSGGTAYNQKFKGKATLTADKFSSTGYMELSSLTSEDSAVYYCTRFYSYAYWGQGTLVTVSA VL: DVVMTQTPLSLPVSLGDQASISCRSSQSLVHSNGNTYLQWYLQKPGQSPKLLIYKVSNRFSGVPDRFSGSGSGTDFILKISRVEAEDLGVYFCSQSIHVPYTFGGGTKLEIK .
Result: 0.00049

Problem: In one line, give reported koff of the entry Hu 52H5D3B8-6 (antibody, V domains shown, humanized 52H5D3B8; also called 52H5D3B8 VH2 + VL1) VH: EVQLVQSGAEVKKPGASVKVSCKASGYTFTDYEMHWVRQAPGQGLEWMGAIHPGSGGTAYNQKFKGRVTMTADTSISTAYMELSRLRSDDTAVYYCTRFYSYAYWGQGTLVTVSS VL: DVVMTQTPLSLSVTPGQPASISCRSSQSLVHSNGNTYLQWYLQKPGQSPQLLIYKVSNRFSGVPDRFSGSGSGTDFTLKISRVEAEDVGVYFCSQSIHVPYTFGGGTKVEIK .
Result: 0.000961
